The measured values listed here are drawn from patent US8715736B2.

# assay notes: Iso-electric point of CPP peptides (Table 1)
# Type: physicochemical
Where no end group is shown, it is not given here.
The entries below are paired with their reported Iso-electric point.
// keep it numeric: no unit symbol after the value

Some entries whose results are on file:
RRRRRRRRRRRHHHHHH (synthetically generated peptide) [R11]    13.4
YKALRISRKLAKHHHHHH (syntheticall generated peptide) [reference compound]    11.6
RRRRRRRRRRRRRRRHHHHHH (synthetically generated peptide) [R15]    13.5
RRRRRRRRHHHHHH (synthetically generated peptide) [R8]    13.2

**Q:** Can you look up the measured Iso-electric point of YGRKKRRQRRRHHHHHH [TAT] for me?
**A:** 12.7
